These entries and their values trace back to a melting point compilation (Tetko et al.; mined from patent text by program, amines drawn as free bases though some values may be those of a salt).

melting point listing for selected molecules.

{"columns": ["molecule", "melting point"],
 "data": [
  ["Cc1ccc2c(c1)OC(CCO)C(=O)N2Cc1cccc(Cl)c1 (centres undefined)", "72 to 74 °C"],
  ["Cc1csc(NC(=O)C2=C(O)c3ccc4ccccc4c3S(=O)(=O)N2C)n1", "177 °C"],
  ["CCCc1c(C(=O)C(C)C)c2ccc(C(N)=O)cc2n1Cc1ccc(Cl)cc1F", "200 to 202 °C"],
  ["O=C(CCCCc1ccccc1)Nc1ccc(C(=O)O)cc1", "227 to 230 °C"],
  ["FC(F)(F)C(/C=C/c1ccc(CNc2ccccn2)c(Cl)c1)c1cc(Cl)c(Cl)c(Cl)c1 (centres undefined)", "140 to 142 °C"],
  ["NS(=O)(=O)c1cccc(-c2cc(-c3nc(-c4ccc(F)c(F)c4)cc(C(F)(F)F)n3)ccn2)c1", "234 °C"],
  ["CCN(CC)Cc1nc2cc(OC)c(OC)cc2c(-c2ccc(OC)c(OC)c2)c1C(C)O (centres undefined)", "144 to 145 °C"],
  ["CS(=O)(=O)c1ccc(-c2c(-c3ccc(F)cc3)c(OCc3c(F)cccc3Cl)nn2Cc2c(F)cccc2Cl)cc1", "195 to 196 °C"],
  ["CCCc1nc2nc3cc(Cl)ccc3nc2[nH]1", "280 to 282 °C"]
]}

###

melting point overview

{"columns": ["compound", "melting point"],
 "data": [
  ["CC(C)c1nn(-c2ccc(C(F)(F)F)cn2)cc1CCCOc1ccccc1CC(=O)O", "132 to 133 °C"],
  ["CN(Cc1ccc(NC(=O)C2=Cc3cc(-c4ccc(N5CCOCC5)cc4)ccc3SCC2)cc1)C1CCOCC1", "255 to 259 °C"],
  ["CC(=O)Nc1cnc(C2OCCO2)cc1C", "98 to 99 °C"],
  ["CCOCc1nc2c(N)nc3ccccc3c2n1CC(C)(C)N", "161 to 162 °C"],
  ["Cc1cc(C2(C(F)(F)F)CC(c3ccc(S(C)=O)cc3)=NO2)ccc1NC(=O)c1cccc(I)c1C(=O)NC(C)C (centres undefined)", "134 to 152 °C"],
  ["COC(=O)c1occc1CN1C(=O)c2ccccc2C1=O", "140 to 143 °C"],
  ["OCc1cn(-c2ccc(Cl)c(C(F)(F)F)c2)cn1", "148 to 153 °C"],
  ["COc1cn(-c2cccc(Br)c2F)nc(-c2ccnn2-c2ccccc2)c1=O", "186 to 191 °C"],
  ["O=[N+]([O-])c1ccccc1CCN1CCN(c2ccccc2)CC1", "76 °C"],
  ["CC12CCC(C1)C1(C)Oc3ccc(C(=O)/C=C/c4ccc(C(=O)O)cc4)cc3C21C (centres undefined)", "225 to 227 °C"],
  ["O=C(C1CN(S(=O)(=O)c2ccc3cc(Br)ccc3c2)CCN1C(=O)C1CCN(c2ccncc2)CC1)N1CCOCC1 (centres undefined)", "235 to 237 °C"],
  ["Cc1c(C)c2c(c(C)c1N)CC(C)(CN1CCC(CCO)CC1)O2 (centres undefined)", "94 to 95 °C"],
  ["COCCCOc1cc(C[C@@H](C[C@H](N)[C@@H](O)C[C@H](C(=O)NCC(C)(C)C(N)=O)C(C)C)C(C)C)ccc1OC", "95 to 104 °C"],
  ["COc1cc(N2CCN(C[C@H](C)O)CC2)c(F)cc1Nc1ncc2ccc(-c3ccccc3N(C)S(C)(=O)=O)n2n1", "116 to 120 °C"],
  ["Nc1cccc(-c2ccc(Cl)nn2)c1", "118 to 121 °C"],
  ["CCN1C(=O)C(=O)C(C)=C(C#N)C1=O", "159 to 160 °C"],
  ["O=C(NC(=S)NC1CCN(CCc2c[nH]c3ccccc23)CC1)c1ccccc1", "212 to 215 °C"],
  ["CCCc1c(OCCCCCCc2cccc(CCCCCC(=O)O)c2CCC(=O)O)ccc2c1OCCC2=O", "109 to 110 °C"],
  ["CCCCCC(=O)Nc1ccc2nnc(C(=O)OCC)c(O)c2c1", "265 to 266 °C"],
  ["CC(c1cccnc1)n1c(=O)[nH]c2cc(Cl)ccc21 (centres undefined)", "190 °C"],
  ["CCOCc1nc2c(N)nc3ccccc3c2n1CCC1(O)CC1", "210 to 211 °C"],
  ["O=C(O)Cc1ccc(SCc2ccccc2C(=O)O)cc1", "169 °C"],
  ["CC(C)c1ccc(N2Cc3ccc(Cl)cc3C2=O)cc1", "206 to 209 °C"],
  ["c1ccc(CCN2Cc3sccc3C(c3ccccc3)C2)cc1 (centres undefined)", "110 °C"],
  ["COC(=O)c1csc(NC(=O)c2ccc(C#N)cc2)n1", "228 °C"],
  ["OC(Cc1ccc(Cl)cc1Cl)(Cn1cncn1)c1ccc(-c2ccccc2)cc1 (centres undefined)", "124 °C"],
  ["O=C(NCCCC1CC1)c1ccc(N2CCC(N3C(=O)C(F)(F)c4ccccc43)CC2)nn1", "51 to 53 °C"],
  ["Nc1c([N+](=O)[O-])cc(Br)c2c1CN(Cc1ccc(C(F)(F)F)cc1)CC2", "119 to 120 °C"],
  ["CC(=O)Oc1ccc(-c2cnc(NC(=S)Cc3ccccc3)c(Cc3ccccc3)n2)cc1", "143 to 145 °C"],
  ["CCc1nc2c(Cl)nc(C)cc2n1Cc1ccccc1", "140 to 141 °C"],
  ["O=C(c1ccccc1)c1ccc(CCl)cc1", "109 to 111 °C"],
  ["CC(C)C(O)C(O)C(O)C(CC1CCCCC1)NC(=O)OC(C)(C)C (centres undefined)", "151 to 152 °C"],
  ["CC(C)=CCC(CC=C(C)C)(C(=O)NO)S(=O)(=O)c1ccc(C)cc1", "108 to 110 °C"],
  ["O=[N+]([O-])c1c[nH]c(-c2c(Cl)cc(C(F)(F)F)cc2Cl)n1", "254 to 255 °C"],
  ["O=C1Nc2ccccc2C12COc1ccc(Br)cc12 (centres undefined)", "225 to 228 °C"],
  ["CN(C(=O)OCc1ccccc1)[C@@H](CCC(=O)O)C(=O)O", "97 to 98 °C"],
  ["O=C1OC(c2ccccc2)CN1Sc1ccc(Cl)cc1 (centres undefined)", "98 to 99 °C"],
  ["Nc1sc2c(c1C(=O)c1ccc(I)cc1)CCN(C(=O)Nc1ccccc1)C2", "89 to 90 °C"],
  ["CCCN(CCC)C1Cc2cc3c(cc2C1)C(=O)N(c1ccc(C#N)cc1)C3=O", "250 to 251 °C"]
]}

###

Overview of reported melting point across a group of molecules:
quantity: melting point

{"columns": ["molecule", "value.observed"],
 "data": [
  ["CC(=O)c1c(N2CCOCC2)nn2ccccc12", "164 °C"],
  ["CCCc1nn(-c2ccc(C(F)(F)F)cn2)cc1CCCOc1c(CC(=O)O)cnn1C", "136 to 138 °C"],
  ["Cc1ccc(OC2CN(S(=O)(=O)c3ccc(C)cc3)CCc3ccccc32)cc1 (stereo unspecified)", "84 to 86 °C"],
  ["CCC(CC)c1ccc(Cl)c2nc(Nc3cnc(OC)cc3C)n(CCCCO)c12", "146 to 147 °C"],
  ["CC(C)(C)OC(=O)N1CC(CCl)c2c1ccc1ccc(S(=O)(=O)N(Cc3ccccc3)Cc3ccccc3)cc21 (stereo unspecified)", "131 to 133 °C"],
  ["OCc1c(Cl)ccc(C2OCCO2)c1Cl", "82 to 85 °C"],
  ["CCCCCCCCCCCC/C(=C\\C=C\\C(=O)O)c1ccc(OC)cc1", "85 to 88 °C"],
  ["CCc1c(Nc2cc(C)cc(C)c2)nc(OC)nc1OC", "113 to 114 °C"],
  ["CC1(c2ccccc2)Cc2c3c(c(Cl)c(Cl)c2C1=O)OC(C(=O)O)C3 (stereo unspecified)", "188 °C"],
  ["CCCCCCCCCCCCCCCCOCCC(O)CO (stereo unspecified)", "60 to 61 °C"],
  ["COC(C)(C)C(=O)Nc1ccc(Sc2nc(C)cc(C)n2)cc1", "123 to 125 °C"],
  ["CCc1cc(Oc2ccc(C(F)(F)F)cc2[N+](=O)[O-])nn1C(=O)NC", "89 to 91 °C"],
  ["Cc1c(C(=O)O)ccc2c1CCCO2", "207 to 208 °C"],
  ["Cn1cnc(S(=O)(=O)N2CCn3c(c(C(N)=O)c(Cl)c3-c3ccccc3)C2)c1", "260 to 263 °C"],
  ["CCCc1c(OCCCOc2ccc(-c3cscn3)c(OC)c2CCC)ccc2c1OC(CCC(=O)O)CC2 (stereo unspecified)", "110 to 113 °C"],
  ["O=C(O)COCCCCC1CCCN1c1cnc(-c2ccccc2)c(-c2ccccc2)n1 (stereo unspecified)", "138 to 140 °C"],
  ["O=C(O)CS(=O)c1cc2onc(-c3ccccc3F)c2cc1Br (stereo unspecified)", "173 to 174 °C"],
  ["OCCn1nccc1-c1ccc(Oc2ccc(F)cc2)cc1", "71 to 72 °C"],
  ["CCCCCCC(=O)N[C@@H]1N=C(c2ccccc2)c2ccccc2N(C)C1=O", "49 to 54 °C"],
  ["COn1ccn(C)c1=S", "56.9 to 57.5 °C"],
  ["c1ccc(COc2cccc3sncc23)cc1", "47 to 49 °C"]
]}
